# measured_on: 5-hydroxytryptamine receptor 1A (Homo sapiens, UniProt P08908)
# Sequence (P08908 whole entry): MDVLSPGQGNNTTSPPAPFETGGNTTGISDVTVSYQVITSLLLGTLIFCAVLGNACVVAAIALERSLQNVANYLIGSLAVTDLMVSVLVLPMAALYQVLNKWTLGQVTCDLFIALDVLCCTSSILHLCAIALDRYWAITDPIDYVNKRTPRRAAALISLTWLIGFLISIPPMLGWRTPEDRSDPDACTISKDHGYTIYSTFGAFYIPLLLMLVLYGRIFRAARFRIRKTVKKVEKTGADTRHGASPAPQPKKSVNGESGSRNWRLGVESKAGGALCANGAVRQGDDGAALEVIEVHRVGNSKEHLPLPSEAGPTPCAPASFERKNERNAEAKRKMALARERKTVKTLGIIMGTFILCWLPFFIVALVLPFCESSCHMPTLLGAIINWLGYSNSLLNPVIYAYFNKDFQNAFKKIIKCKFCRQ
# assay_overview: biochemical
For each of the molecules below, state its Ki.
Enter your answer as a number in nM; do not include the unit.

Per the records, this molecule ( N#Cc1ccc2[nH]cc(CCCN(C3CCC3)C3COc4c(F)ccc(C(N)=O)c4C3)c2c1 (single isomer, unassigned; (+)) ) has Ki equal to 258

Per the records, this molecule ( CCCN(CCCc1c[nH]c2ccc(F)cc12)C1COc2c(F)ccc(OC)c2C1 (stereo unspecified) ) has Ki equal to 19.4

Per the records, this molecule ( N#Cc1ccc2[nH]cc(CCCN(C3CCC3)C3COc4c(F)ccc(C(N)=O)c4C3)c2c1 (single isomer, unassigned; (-)) ) has Ki equal to 1.98

Per the records, this molecule ( CCCN(CCCc1c[nH]c2ccc(F)cc12)[C@H]1COc2c(F)ccc(C(=O)NC)c2C1 ) has Ki equal to 2.64

Per the records, this molecule ( NC(=O)c1ccc(Cl)c2c1CC(N(CCCc1c[nH]c3ccc(F)cc13)C1CCC1)CO2 (single isomer, unassigned; (-)) ) has Ki equal to 10.9

Per the records, this molecule ( CNC(=O)c1ccc(F)c2c1C[C@@H](N(CCCc1c[nH]c3ccc(F)cc13)C1CCC1)CO2 ) has Ki equal to 1.32

----------
# Species on record: Rattus norvegicus
# assay_overview: Displacement of [3H]prazosin from alpha1 adrenergic receptor in Sprague-Dawley rat cortical membrane at 1 uM
Classes are defined on Activity with ranges lo (below 8%), mid (8% to below 20%), hi (20% or more)

Please classify: NC(=O)c1ccc(F)c2c1CC(N(CCCCn1ccc3cccc(F)c31)C1CCC1)CO2 (configuration not stated)
mid

Please classify: NC(=O)c1ccc(F)c2c1CC(N(CCCCn1ccc3ccc(F)cc31)C1CCC1)CO2 (configuration not stated)
lo

Please classify: NC(=O)c1ccc(F)c2c1CC(N(CCCc1c[nH]c3ccc(F)cc13)C1CCC1)CO2 (configuration not stated)
mid

Please classify: O=C(NC1CC1)c1ccc(F)c2c1CC(N(CCCc1c[nH]c3ccc(F)cc13)C1CCC1)CO2 (configuration not stated)
mid

Please classify: NC(=O)c1ccc(F)c2c1C[C@@H](N(CC1CC1)CC1CCc3[nH]c4ccc(F)cc4c3C1)CO2 (stereo in doubt; 59b)
hi

Please classify: NC(=O)c1ccc(F)c2c1C[C@@H](N(CCCc1c[nH]c3ccc(F)cc13)C1CCC1)CO2
hi

Please classify: CNC(=O)c1ccc(F)c2c1CC(N(CCCc1c[nH]c3ccc(F)cc13)C1CCC1)CO2 (configuration not stated)
hi

Please classify: O=C(NCC1CC1)c1ccc(F)c2c1CC(N(CCCc1c[nH]c3ccc(F)cc13)C1CCC1)CO2 (configuration not stated)
hi

Please classify: CCCN(CC1CCc2[nH]c3ccc(F)cc3c2C1)[C@H]1COc2c(F)ccc(C(N)=O)c2C1 (single isomer, unassigned; (+))
mid

Please classify: CCCN(CCCCn1ccc2c(F)cccc21)C1COc2c(F)ccc(C(N)=O)c2C1 (configuration not stated)
hi

Please classify: CC(CCc1c[nH]c2ccc(F)cc12)N(CC1CC1)C1COc2c(F)ccc(C(N)=O)c2C1 (single isomer, unassigned; (+))
lo

Please classify: NC(=O)c1ccc(F)c2c1C[C@@H](N(CC1CC1)CC1CCc3[nH]c4ccc(F)cc4c3C1)CO2 (stereo in doubt; 59a)
lo

Please classify: NC(=O)c1ccc(F)c2c1CC(N(CCCc1c[nH]c3c(F)cc(F)cc13)C1CCC1)CO2 (single isomer, unassigned; (+))
lo

Please classify: COc1cccc2c1CC(N(CCCc1c[nH]c3ccc(F)cc13)C1CCC1)CO2 (configuration not stated)
mid

Please classify: CNC(=O)c1ccc(F)c2c1C[C@@H](N(CCCc1c[nH]c3ccc(F)cc13)C1CCC1)CO2
lo

Please classify: CCCN(CCCc1c[nH]c2ccc(F)cc12)[C@H]1COc2c(F)ccc(C(=O)NC)c2C1
hi
